test: NCI Yeast Anticancer Drug Screen. Data for the rad50EPP+ strain (AID 151); settings: S. cerevisiae rad50 mutant strain, at 100.0 µM
This is part of a sample that, as a whole, favours compounds with a hit. Of some 79,000 tested, about 15% had one in any assay. Activity calls are given as the source filed them. No stated cut-off is given here; in the data, active means growth inhibition above about 70%; inactive means the rest.
Give your call using only these classes: active, inactive

Illustrative cases are given below, each with its answer.
C/C(=N\NC(=S)NNC(=S)N(C)c1ccccc1)c1ccccn1
active
N#C/C(=C/N1C(=O)/C(=C/c2ccc([N+](=O)[O-])cc2)SC1=S)c1nc2ccccc2s1
active
S=c1[nH]nc(-c2ccc(Cl)cc2)s1
active

Problem: I would be grateful if you could indicate the recorded call for Cc1ccc(S(=O)(=O)Nc2ccc3c(c2)C(O)c2ccccc2-3)cc1 (stereo not given) .
Result: inactive

Problem: I would be grateful if you could indicate the recorded call for `Oc1ccc(Br)cc1C=NC1CCCCC1` .
Result: active
